The values you see were collected from patent US20260232812A1.

# measured_on: BRD9 (Homo sapiens)
# Sequence (Q9H8M2 whole entry): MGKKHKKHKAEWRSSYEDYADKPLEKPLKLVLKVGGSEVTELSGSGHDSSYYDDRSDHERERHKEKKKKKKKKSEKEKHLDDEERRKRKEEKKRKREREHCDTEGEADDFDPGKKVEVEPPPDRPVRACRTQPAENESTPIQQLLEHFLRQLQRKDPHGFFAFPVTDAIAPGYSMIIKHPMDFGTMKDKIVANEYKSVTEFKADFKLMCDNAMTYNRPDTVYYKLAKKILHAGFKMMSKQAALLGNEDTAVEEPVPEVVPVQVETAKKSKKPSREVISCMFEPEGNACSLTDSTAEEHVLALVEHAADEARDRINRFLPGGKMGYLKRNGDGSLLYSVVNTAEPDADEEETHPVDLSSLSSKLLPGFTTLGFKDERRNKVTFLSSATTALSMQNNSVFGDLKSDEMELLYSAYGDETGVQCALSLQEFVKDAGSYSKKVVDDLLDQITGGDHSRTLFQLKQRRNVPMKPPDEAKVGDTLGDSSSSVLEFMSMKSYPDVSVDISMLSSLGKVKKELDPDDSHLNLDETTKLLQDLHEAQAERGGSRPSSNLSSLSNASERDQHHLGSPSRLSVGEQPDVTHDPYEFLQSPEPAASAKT
# measurement_description: Assay Protocol 2 - Degradation of BRD9 (IF) in MV4-11 cells
# Type: cell-based
# Design: host or cells: MV4-11
# measurement_context: Assay Protocol 2: BRD9 immunofluorescence, 24 hours
property: DC50

// below: answered compounds
> print(dat)
                                   compound          measured.on  property        result
1  COc1cc(-c2cn(C)c(=O)c(C)c2C)cc(OC)c1CN1C2CC1CN(C(=O)/C(C#N)=C/C1(C(F)(F)F)CCC1)C2 (mixture of isomers) [BRD9p]  BRD9 (Homo sapiens)      DC50  25 to 200 nM
2  COc1cc(-c2cn(C)c(=O)c(C)c2C)cc(OC)c1CN(C)C1CCN(C(=O)/C(C#N)=C/C23CC(C2)C3)CC1 (mixture of isomers) [BRD9ae]  BRD9 (Homo sapiens)      DC50       < 25 nM
3  COc1ccc([C@@H]2CN(C(=O)/C(C#N)=C/c3nccs3)C[C@H]2C(=O)N2CCN(Cc3c(OC)cc(-c4cn(C)c(=O)c(C)c4C)cc3OC)CC2)cc1 [BRD9ah]  BRD9 (Homo sapiens)      DC50       < 25 nM
4  COc1cc(-c2cn(C)c(=O)c(C)c2C)cc(OC)c1CN1C[C@@H](C)N(C(=O)/C(C#N)=C/C(C)(C)C)C[C@@H]1C [BRD9ad]  BRD9 (Homo sapiens)      DC50  25 to 200 nM
5  COc1cc(-c2cn(C)c(=O)c(C)c2C)cc(OC)c1CN1C2CC1CN(C(=O)/C(C#N)=C/c1cccc(C(F)(F)F)n1)C2 [BRD9af]  BRD9 (Homo sapiens)      DC50       < 25 nM

Attention now turns to another entry.
# lookup: DC50 of COc1cc(-c2cn(C)c(=O)c(C)c2C)cc(OC)c1CN1C2CC1CN(C(=O)/C(C#N)=C/c1nccs1)C2 (mixture of isomers) [BRD9n] < 25 nM
